Below, each entry is listed with its recorded pIC50.
assayed-system: recombinant human baculovirus-expressed cMET (Homo sapiens (Human))
Sequence (P08581 25-1390): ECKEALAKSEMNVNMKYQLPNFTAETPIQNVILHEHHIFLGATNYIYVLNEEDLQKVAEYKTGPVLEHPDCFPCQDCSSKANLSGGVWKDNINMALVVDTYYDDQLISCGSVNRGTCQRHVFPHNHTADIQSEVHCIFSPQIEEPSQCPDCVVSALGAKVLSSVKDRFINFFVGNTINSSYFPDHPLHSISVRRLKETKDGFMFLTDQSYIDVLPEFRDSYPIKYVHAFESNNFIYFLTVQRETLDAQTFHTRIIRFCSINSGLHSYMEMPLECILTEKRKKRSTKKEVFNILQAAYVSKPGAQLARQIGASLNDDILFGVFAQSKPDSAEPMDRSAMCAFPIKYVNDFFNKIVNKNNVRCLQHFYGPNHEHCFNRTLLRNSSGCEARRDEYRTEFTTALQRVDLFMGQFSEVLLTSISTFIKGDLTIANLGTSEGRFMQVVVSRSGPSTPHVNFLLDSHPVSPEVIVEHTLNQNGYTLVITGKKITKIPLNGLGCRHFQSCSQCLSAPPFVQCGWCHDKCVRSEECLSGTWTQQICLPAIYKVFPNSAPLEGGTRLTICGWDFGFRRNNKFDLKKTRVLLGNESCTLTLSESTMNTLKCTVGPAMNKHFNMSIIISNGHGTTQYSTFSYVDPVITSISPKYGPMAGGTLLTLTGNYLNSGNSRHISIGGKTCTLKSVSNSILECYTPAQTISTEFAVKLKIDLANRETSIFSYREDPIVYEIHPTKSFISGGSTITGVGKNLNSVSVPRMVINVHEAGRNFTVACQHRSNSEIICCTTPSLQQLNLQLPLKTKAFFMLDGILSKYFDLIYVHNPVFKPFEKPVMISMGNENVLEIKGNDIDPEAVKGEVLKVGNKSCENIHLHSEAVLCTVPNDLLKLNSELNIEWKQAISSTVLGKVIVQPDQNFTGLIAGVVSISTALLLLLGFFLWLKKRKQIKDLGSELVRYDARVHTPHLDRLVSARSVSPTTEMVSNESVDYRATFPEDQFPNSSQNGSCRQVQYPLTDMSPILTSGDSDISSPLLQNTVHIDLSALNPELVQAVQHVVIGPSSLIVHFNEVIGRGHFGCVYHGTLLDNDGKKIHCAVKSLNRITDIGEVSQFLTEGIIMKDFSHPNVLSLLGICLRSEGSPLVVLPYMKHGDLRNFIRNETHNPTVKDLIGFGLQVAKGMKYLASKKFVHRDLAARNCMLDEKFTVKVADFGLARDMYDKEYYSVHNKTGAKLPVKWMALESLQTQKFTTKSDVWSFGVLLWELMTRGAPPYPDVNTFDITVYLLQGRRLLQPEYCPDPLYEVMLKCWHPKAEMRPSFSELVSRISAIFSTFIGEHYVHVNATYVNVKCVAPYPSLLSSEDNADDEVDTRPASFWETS
assay-summary: C-MET Kinase Assay (HTRF KinEASE)
Format: biochemical
condition-info: average of two or more determinations; read-out: c-MET IC50
pIC50: −log10 of the molar value.

{"compound": "COc1cc2nccc(Oc3ccc(NC(=O)c4cn(CCCc5ccccc5)c(=O)n(-c5ccc(F)cc5)c4=O)cc3F)c2cc1OC [Example 81]", "assayed-system": "recombinant human baculovirus-expressed cMET (Homo sapiens (Human))", "pIC50": "7.00 to 8.00"}
{"compound": "CCn1cc(C(=O)Nc2ccc(Oc3ccnc4cc(OC)c(OC)cc34)c(C3CC3)c2)c(=O)n(-c2ccc(F)cc2)c1=O [Example 59]", "assayed-system": "recombinant human baculovirus-expressed cMET (Homo sapiens (Human))", "pIC50": "7.00 to 8.00"}
{"compound": "COc1cc2nccc(Cc3ccc(NC(=O)c4cn(C)c(=O)n(-c5ccc(F)cc5)c4=O)cc3F)c2cc1OC [Example 58]", "assayed-system": "recombinant human baculovirus-expressed cMET (Homo sapiens (Human))", "pIC50": "7.00 to 8.00"}
{"compound": "CCn1c(=O)c(C(=O)Nc2ccc(Oc3ccnc4cc(OC)c(OC)cc34)c(F)c2)cn(-c2ccc(F)cc2)c1=O [Example 91]", "assayed-system": "recombinant human baculovirus-expressed cMET (Homo sapiens (Human))", "pIC50": "7.00 to 8.00"}
{"compound": "Cn1cc(C(=O)Nc2ccc(Oc3ccnc4cc5c(cc34)OCO5)c(F)c2)c(=O)n(-c2ccc(F)cc2)c1=O [Example 131]", "assayed-system": "recombinant human baculovirus-expressed cMET (Homo sapiens (Human))", "pIC50": "7.00 to 8.00"}
{"compound": "CCn1cc(C(=O)Nc2ccc(Oc3ccnc4cc(OCCN5CCOCC5)c(OC)cc34)c(F)c2)c(=O)n(-c2ccc(F)cc2)c1=O [Example 45]", "assayed-system": "recombinant human baculovirus-expressed cMET (Homo sapiens (Human))", "pIC50": "7.00 to 8.00"}
{"compound": "COc1cc2nccc(Oc3ccc(NC(=O)c4cn(C(C)C)c(=O)n(-c5ccc(F)cc5)c4=O)c(N(C)C)c3)c2cc1OC [Example 154]", "assayed-system": "recombinant human baculovirus-expressed cMET (Homo sapiens (Human))", "pIC50": "6.00 to 7.00"}

* * *

assayed-system: recombinant human baculovirus-expressed AXL (Homo sapiens (Human), UniProt P30530)
Sequence (P30530 26-894): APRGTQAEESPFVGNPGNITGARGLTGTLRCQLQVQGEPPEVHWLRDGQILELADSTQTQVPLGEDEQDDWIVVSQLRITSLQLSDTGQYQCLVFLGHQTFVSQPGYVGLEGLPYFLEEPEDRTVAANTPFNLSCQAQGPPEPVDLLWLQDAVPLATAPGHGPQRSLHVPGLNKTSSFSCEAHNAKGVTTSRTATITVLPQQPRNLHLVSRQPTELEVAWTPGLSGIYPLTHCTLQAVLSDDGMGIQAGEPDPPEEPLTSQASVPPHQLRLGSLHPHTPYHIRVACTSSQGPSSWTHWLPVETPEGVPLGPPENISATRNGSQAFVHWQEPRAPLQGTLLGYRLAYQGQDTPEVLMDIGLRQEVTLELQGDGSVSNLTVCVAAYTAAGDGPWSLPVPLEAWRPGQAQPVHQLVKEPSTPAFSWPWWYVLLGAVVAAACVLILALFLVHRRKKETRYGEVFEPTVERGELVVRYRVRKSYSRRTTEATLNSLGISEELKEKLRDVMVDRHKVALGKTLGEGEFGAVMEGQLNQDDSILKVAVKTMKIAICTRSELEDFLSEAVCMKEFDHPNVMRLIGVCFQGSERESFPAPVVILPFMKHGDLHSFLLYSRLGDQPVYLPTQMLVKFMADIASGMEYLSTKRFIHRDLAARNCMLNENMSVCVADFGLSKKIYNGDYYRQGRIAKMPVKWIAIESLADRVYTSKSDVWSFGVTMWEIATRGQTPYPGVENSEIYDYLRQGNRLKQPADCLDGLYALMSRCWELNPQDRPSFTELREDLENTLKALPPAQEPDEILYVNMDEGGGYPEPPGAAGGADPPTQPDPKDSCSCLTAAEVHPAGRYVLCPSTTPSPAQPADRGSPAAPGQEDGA
assay-summary: AXL Kinase Assay (HTRF KinEASE)
condition-info: average of two or more determinations

{"record-smiles": "CCN(CC)C(=O)Cn1cc(C(=O)Nc2ccc(Oc3ccnc4cc(OC)c(OC)cc34)c(F)c2)c(=O)n(-c2ccc(F)cc2)c1=O", "IC50": "< 0.01 µM"}
{"record-smiles": "COc1cc2nccc(Oc3ccc(NC(=O)c4cn(CCC5OCCO5)c(=O)n(-c5ccc(F)cc5)c4=O)cc3F)c2cc1OC", "IC50": "< 0.01 µM"}
{"record-smiles": "COc1cc2nccc(Oc3ccc(NC(=O)c4c[nH]c(=O)n(-c5ccc(F)cc5)c4=O)cc3OC)c2cc1OC", "IC50": "< 0.01 µM"}
{"record-smiles": "CCn1cc(C(=O)Nc2ccc(Oc3ccnc4ccc(OC)c(OC)c34)cc2)c(=O)n(-c2ccc(F)cc2)c1=O", "IC50": "< 0.01 µM"}
{"record-smiles": "CCn1cc(C(=O)Nc2ccc(Oc3ccnc4cc(OC)c(OC)cc34)c(F)c2F)c(=O)n(-c2ccc(F)cc2)c1=O", "IC50": "< 0.01 µM"}
{"record-smiles": "COc1cc2nccc(Oc3ccc(NC(=O)c4cn(Cc5csc(C)n5)c(=O)n(-c5ccc(F)cc5)c4=O)cc3F)c2cc1OC", "IC50": "< 0.01 µM"}
{"record-smiles": "COc1cc2nccc(Oc3ccc(NC(=O)c4cn(CCN5CCCC5=O)c(=O)n(-c5ccc(F)cc5)c4=O)cc3F)c2cc1OC", "IC50": "< 0.01 µM"}

* * *

assayed-system: recombinant human baculovirus-expressed cMET (Homo sapiens (Human))
assay-summary: C-MET Kinase Assay (HTRF KinEASE)
Assay type: biochemical
condition-info: average of two or more determinations; read-out: c-MET IC50
Below, each entry is listed with its recorded IC50.
parameter: IC50

{"compound": "COc1cc2nccc(Oc3ccc(NC(=O)c4cn(C(C)C)c(=O)n(-c5ccc(F)cc5)c4=O)cc3C(C)C)c2cc1OC [Example 156]", "meas-value": "0.01 to 0.1 µM"}
{"compound": "COc1cc2nccc(Oc3ccc(NC(=O)c4nn(C)c(=O)[nH]c4=O)cc3F)c2cc1OC [Example 114]", "meas-value": "0.01 to 0.1 µM"}
{"compound": "COc1cc2nccc(Oc3ccc(NC(=O)c4nn(C(C)C)c(=O)n(-c5ccc(F)cc5)c4=O)nc3)c2cc1OC [Example 110]", "meas-value": "0.01 to 0.1 µM"}
{"compound": "COc1cc2nccc(Oc3ccc(NC(=O)c4cn(CCCOCc5ccccc5)c(=O)n(-c5ccc(F)cc5)c4=O)cc3)c2cc1OC [Example 21]", "meas-value": "0.01 to 0.1 µM"}
{"compound": "C=CCn1c(=O)c(C(=O)Nc2ccc(Oc3ccnc4cc(OC)c(OC)cc34)c(F)c2)nn(C)c1=O [Example 124]", "meas-value": "0.01 to 0.1 µM"}
{"compound": "COc1cc2nccc(Oc3ccc(NC(=O)c4cn(CC(=O)N5CCOCC5)c(=O)n(-c5ccc(F)cc5)c4=O)cc3F)c2cc1OC [Example 67]", "meas-value": "0.01 to 0.1 µM"}
{"compound": "CCn1cc(C(=O)Nc2ccc(Oc3ccnc4cc(OCCCN5CCOCC5)c(OC)cc34)c(F)c2)c(=O)n(-c2ccc(F)cc2)c1=O [Example 43]", "meas-value": "0.01 to 0.1 µM"}
{"compound": "COc1cc2nccc(Oc3ccc(NC(=O)c4cn(CC5CC5)c(=O)n(-c5ccc(F)cc5)c4=O)cc3F)c2cc1OC [Example 6]", "meas-value": "< 0.01 µM"}
{"compound": "COc1cc2nccc(Oc3ccc(NC(=O)c4cn(CC=C(C)C)c(=O)n(-c5ccc(F)cc5)c4=O)cc3F)c2cc1OC [Example 15]", "meas-value": "0.01 to 0.1 µM"}
{"compound": "COc1cc2nccc(Oc3ccc(NC(=O)c4cn(CCO)c(=O)n(-c5ccc(F)cc5)c4=O)cc3F)c2cc1OC [Example 49]", "meas-value": "< 0.01 µM"}
{"compound": "COc1cc2nccc(Oc3ccc(NC(=O)c4cn(CC5CC5)c(=O)n(-c5ccc(F)cc5)c4=O)nc3)c2cc1OC [Example 35]", "meas-value": "0.01 to 0.1 µM"}
{"compound": "COc1cc2nccc(Oc3ccc(NC(=O)c4cn(CCN5CCCC5=O)c(=O)n(-c5ccc(F)cc5)c4=O)cc3F)c2cc1OC [Example 68]", "meas-value": "< 0.01 µM"}
{"compound": "CCN(CC)C(=O)Cn1cc(C(=O)Nc2ccc(Oc3ccnc4cc(OC)c(OC)cc34)c(F)c2)c(=O)n(-c2ccc(F)cc2)c1=O [Example 66]", "meas-value": "< 0.01 µM"}
{"compound": "COc1cc2c(Oc3ccc(NC(=O)c4cn(C(C)C)c(=O)n(-c5ccc(F)cc5)c4=O)cc3F)ccnc2cc1OCCCN1CCOCC1 [Example 47]", "meas-value": "0.01 to 0.1 µM"}

* * *

Below, each entry is listed with its recorded IC50.
assayed-system: recombinant human baculovirus-expressed cMET (Homo sapiens (Human))
assay-summary: C-MET Kinase Assay (HTRF KinEASE)
Assay type: biochemical
condition-info: average of two or more determinations; read-out: c-MET IC50
Protocol: The cMET kinase assay was performed in 384-well Fluotrac™ 200 HiBase microplates using the HTRF KinEASE™ assay described above for AXL except that the assay volume was reduced to half. Enzyme concentration was 8 ng/mL of recombinant human baculovirus-expressed cMET while the substrate concentrations were 0.1 μM and 0.02 μM for the biotinylated peptide and ATP, respectively. […]

{"molecule": "CCn1cc(C(=O)Nc2ccc(Oc3ccnc4cc(OC)c(OC)cc34)c(OC)c2)c(=O)n(-c2ccc(F)cc2)c1=O [Example 151]", "IC50": "10 to 100 nM"}
{"molecule": "CCn1cc(C(=O)Nc2ccc(Oc3ccnc4cc(OC)c(OC)cc34)c(C)c2C)c(=O)n(-c2ccc(F)cc2)c1=O [Example 157]", "IC50": "101 to 1000 nM"}
{"molecule": "COc1cc2c(Oc3ccc(NC(=O)c4cn(C(C)C)c(=O)n(-c5ccc(F)cc5)c4=O)cc3F)ccnc2cc1OCc1ccccc1 [Example 41]", "IC50": "101 to 1000 nM"}
{"molecule": "CCOc1cc2nccc(Oc3ccc(NC(=O)c4cn(C(C)C)c(=O)n(-c5ccc(F)cc5)c4=O)cc3F)c2cc1OCC [Example 37]", "IC50": "101 to 1000 nM"}
{"molecule": "COc1cc2nccc(Oc3ccc(NC(=O)c4cn(CC5CCCO5)c(=O)n(-c5ccc(F)cc5)c4=O)cc3F)c2cc1OC (centres unmarked) [Example 73]", "IC50": "10 to 100 nM"}
{"molecule": "COc1cc2nccc(Oc3ccc(NC(=O)c4nn(CC(C)=O)c(=O)n(-c5ccc(F)cc5)c4=O)cc3F)c2cc1OC [Example 112]", "IC50": "10 to 100 nM"}
{"molecule": "COc1cc2nccc(Oc3ccc(NC(=O)c4cn(CCOC(C)C)c(=O)n(-c5ccc(F)cc5)c4=O)cc3F)c2cc1OC [Example 12]", "IC50": "10 to 100 nM"}
{"molecule": "COc1cc2nccc(Oc3ccc(NC(=O)c4cn(CCCCO)c(=O)n(-c5ccc(F)cc5)c4=O)cc3F)c2cc1OC [Example 55]", "IC50": "10 to 100 nM"}
{"molecule": "COc1cc2nccc(Oc3ccc(NC(=O)c4c[nH]c(=O)n(-c5ccc(F)cc5)c4=O)cc3OC)c2cc1OC [Example 150]", "IC50": "10 to 100 nM"}
{"molecule": "COc1cc2nccc(Oc3ccc(NC(=O)c4cn(CC(=O)OC(C)(C)C)c(=O)n(-c5ccc(F)cc5)c4=O)cc3F)c2cc1OC [Example 70]", "IC50": "10 to 100 nM"}
{"molecule": "CCCCCn1cc(C(=O)Nc2ccc(Oc3ccnc4cc(OC)c(OC)cc34)c(F)c2)c(=O)n(-c2ccc(F)cc2)c1=O [Example 36]", "IC50": "10 to 100 nM"}
{"molecule": "COc1cc2nccc(Oc3ccc(NC(=O)c4nn(C)c(=O)n(CC#CCO)c4=O)cc3F)c2cc1OC [Example 118]", "IC50": "101 to 1000 nM"}
{"molecule": "COc1cc2nccc(Oc3ccc(NC(=O)c4c[nH]c(=O)n(-c5ccc(F)cc5)c4=O)c(F)c3)c2cc1OC [Example 85]", "IC50": "< 10 nM"}
{"molecule": "COc1cc2nccc(Oc3ccc(NC(=O)c4c[nH]c(=O)n(-c5ccc(F)cc5)c4=O)cc3F)c2cc1OC [Example 17]", "IC50": "< 10 nM"}

Value source: patent US9745283B2
